- System: RXF 393
- procedure summary: NCI-60 one-dose assay
- Assay type: cell-based
- condition description: Homo sapiens, RXF 393 (Renal Cancer), read-out: Cell Inhibition Percent
The entries below come with measured inhibition at 10 µM values attached.
Just the number in %, nothing appended.

**Query** Provide inhibition at 10 µM, tested on RXF 393, for O=C(NN=Cc1ccc(Cl)cc1Cl)c1ccc2[nH]c(-c3ccc(Cl)cc3)nc2c1 .
**Result** 12.5

**Query** Recall the reported inhibition at 10 µM of CCn1c(-c2ccc3[nH]c(-c4ccc(Cl)cc4)nc3c2)n[nH]c1=S on RXF 393 and write it down.
**Result** 13.9

**Query** Give inhibition at 10 µM; test system RXF 393; molecule O=C(NN=Cc1ccc([N+](=O)[O-])cc1)c1ccc2[nH]c(-c3ccc(Cl)cc3)nc2c1
**Result** 68.4

**Query** Give RXF 393 inhibition at 10 µM for the following molecule: O=C(N/N=C/c1ccc(O)cc1)c1ccc2[nH]c(-c3ccc(Cl)cc3)nc2c1
**Result** 0

---

- Tested on: HS 578T
- procedure summary: NCI-60 one-dose assay
- Assay type: cell-based
- condition description: Homo sapiens, HS 578T (Breast Cancer), read-out: Cell Inhibition Percent
Category key, based on recorded inhibition at 10 µM: low class: < 8%; middle class: ≥ 8% and < 50%; high class: ≥ 50%

COc1ccc(C=NNC(=O)c2ccc3[nH]c(-c4ccc(Cl)cc4)nc3c2)cc1 | high class
COc1cc(/C=N/NC(=O)c2ccc3[nH]c(-c4ccc(Cl)cc4)nc3c2)cc(OC)c1OC | high class
O=C(NN=Cc1ccc([N+](=O)[O-])cc1)c1ccc2[nH]c(-c3ccc(Cl)cc3)nc2c1 | high class

**Query** Bin? O=C(NN=Cc1ccc(Cl)cc1Cl)c1ccc2[nH]c(-c3ccc(Cl)cc3)nc2c1
**Result** middle class

**Query** Where would CN(C)c1ccc(C=NNC(=O)c2ccc3[nH]c(-c4ccc(Cl)cc4)nc3c2)cc1 land among the classes by reported inhibition at 10 µM?
**Result** low class

**Query** Band for the recorded inhibition at 10 µM of CCn1c(-c2ccc3[nH]c(-c4ccc(Cl)cc4)nc3c2)n[nH]c1=S ?
**Result** low class

**Query** Record O=C(NN=Cc1ccc(F)cc1)c1ccc2[nH]c(-c3ccc(Cl)cc3)nc2c1 — which class?
**Result** middle class

**Query** Which class does O=C(NN=Cc1ccc(Cl)cc1)c1ccc2[nH]c(-c3ccc(Cl)cc3)nc2c1 fall in?
**Result** high class

**Query** Category of O=C(N/N=C/c1ccc(O)cc1)c1ccc2[nH]c(-c3ccc(Cl)cc3)nc2c1 , please.
**Result** low class

**Query** Returns: class label. Input: CCNC(=S)NNC(=O)c1ccc2[nH]c(-c3ccc(Cl)cc3)nc2c1
**Result** middle class

---

inhibition at 10 µM: recorded values
- Tested on: SW-620
- procedure summary: NCI-60 one-dose assay
- Format: cell-based
- condition description: Homo sapiens, SW-620 (Colon Cancer), read-out: Cell Inhibition Percent

CCNC(=S)NNC(=O)c1ccc2[nH]c(-c3ccc(Cl)cc3)nc2c1 | 0%
O=C(NN=Cc1ccc(Cl)cc1Cl)c1ccc2[nH]c(-c3ccc(Cl)cc3)nc2c1 | 4.3%

# input for lookup
**Query** Give the value of inhibition at 10 µM reported for the following: O=C(N/N=C/c1ccc(O)cc1)c1ccc2[nH]c(-c3ccc(Cl)cc3)nc2c1
**Result** 0%
